Just for reference, patent US20060004197A1 is where these values come from.

biological target: Recombinant human Src (Homo sapiens); construct: made in house; host or cells: baculovirus-insect cell system; test: Src tyrosine kinase activity, poly E4Y / 32P-ATP phosphorylation assay; assay type: biochemical; conditions: compound at 15 μg/mL; read-out: % Inhibition at 15 μg/mL Src %
Sequence (P12931 whole entry): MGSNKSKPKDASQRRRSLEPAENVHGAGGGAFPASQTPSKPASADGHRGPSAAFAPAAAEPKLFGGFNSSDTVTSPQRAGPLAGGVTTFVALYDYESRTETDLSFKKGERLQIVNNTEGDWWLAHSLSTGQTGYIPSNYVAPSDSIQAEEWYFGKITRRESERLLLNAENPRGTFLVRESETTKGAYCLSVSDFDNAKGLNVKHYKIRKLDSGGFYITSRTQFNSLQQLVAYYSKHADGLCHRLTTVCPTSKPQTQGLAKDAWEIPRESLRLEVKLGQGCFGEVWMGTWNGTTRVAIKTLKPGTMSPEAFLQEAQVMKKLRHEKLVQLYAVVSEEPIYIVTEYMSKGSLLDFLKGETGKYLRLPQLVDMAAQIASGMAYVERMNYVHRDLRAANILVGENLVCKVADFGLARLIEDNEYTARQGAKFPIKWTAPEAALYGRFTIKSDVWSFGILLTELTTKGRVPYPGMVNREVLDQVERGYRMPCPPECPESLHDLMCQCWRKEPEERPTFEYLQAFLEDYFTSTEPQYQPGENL
property_label: inhibition at 15 µg/mL (%)
Answers are plain numbers, in %.

Input: Dear colleague, I am looking for the recorded inhibition at 15 µg/mL of the following compound: COc1ccc(Oc2ccc(NCc3ccc(C)cc3)c(NS(=O)(=O)c3ccc(C)cc3)c2)cc1 [Compound 71jj]
Output: 19

Input: Also, COc1ccc(Oc2ccc(NS(=O)(=O)c3ccc(C)cc3)c(N=Cc3ccc4ccccc4n3)c2)cc1 [Compound 71u] please.
Output: 6

Input: Subsequent entry: Cc1ccc(C(=O)Nc2cc(NCC3CCCCC3)c([N+](=O)[O-])cc2NC(=O)c2ccc(C)cc2)cc1 [Compound 71aa]
Output: 0

Answer for every listed entry: what is its inhibition at 15 µg/mL? The entries follow.
1. COc1ccc(OCc2ccc(CN)c(NS(=O)(=O)c3ccc(C)cc3)c2)cc1 [Compound 71w]
2. COc1ccc(Oc2ccc(N)c(N(C)S(=O)(=O)c3ccc(C)cc3)c2)cc1 [Compound 71t]

Output:
[9, 0]

The following compounds each have a reported value; give each one's inhibition at 15 µg/mL.
1. Nc1cc(SCc2ccccc2Cl)c([N+](=O)[O-])cc1NS(=O)(=O)c1ccc(Cl)c2nonc12 [Compound 71ll]
2. COc1ccc(OCc2ccc(CNS(C)(=O)=O)c(NS(=O)(=O)c3ccc4cc(C)ccc4c3)c2)cc1 [Compound 71x]
3. COc1ccc(Oc2cc(N)c(NS(=O)(=O)c3ccc(C)cc3)cc2C(F)(F)F)cc1 [Compound 71ee]
4. Cc1ccc(C(=O)Nc2cc(N3CCOCC3)c([N+](=O)[O-])cc2NC(=O)c2ccc(C)cc2)cc1 [Compound 71y]
5. COc1ccc(Oc2cc(N)c(NS(=O)(=O)c3ccc(C)cc3)cc2[N+](=O)[O-])cc1 [Compound 71cc]

Output:
1. 26
2. 20
3. 21
4. 14
5. 15

Give one value of inhibition at 15 µg/mL per listed compound.
1. COc1ccc(Oc2cc(NS(=O)(=O)c3ccc(C)cc3)c(N)cc2C(F)(F)F)cc1 [Compound 71gg]
2. Cc1ccc(S(=O)(=O)Nc2ccc(S(=O)(=O)Cc3ccccc3Cl)cc2NS(=O)(=O)c2ccc(C)cc2)cc1 [Compound 71nn]
3. COc1ccc(Oc2ccc(NC(=O)Cc3ccccc3)c(NS(=O)(=O)c3ccc(C)cc3)c2)cc1 [Compound 71s]

Output:
19
46
10

Provide the reported inhibition at 15 µg/mL of each entry below, same order.
1. Cc1ccc(S(=O)(=O)Nc2cc(SCc3ccccc3Cl)ccc2N)cc1 [Compound 71kk]
2. COc1ccc(OCc2ccc(C(N)=O)c(NS(=O)(=O)c3ccc(C)cc3)c2)cc1 [Compound 71v]

Output:
29
10

Input: Reported inhibition at 15 µg/mL for CCc1ccc(NS(=O)(=O)c2ccc(OC)cc2NS(=O)(=O)c2ccc(C)cc2)cc1 [Compound 71mm] : what is it?
Output: 19

---

target: Recombinant Csk (Homo sapiens, UniProt P41240); test: Csk tyrosine kinase activity, poly E4Y / 32P-ATP phosphorylation assay; assay type: biochemical; settings: poly E4Y / 32P-ATP; Formula IV compounds
Sequence (P41240 whole entry, species assumed): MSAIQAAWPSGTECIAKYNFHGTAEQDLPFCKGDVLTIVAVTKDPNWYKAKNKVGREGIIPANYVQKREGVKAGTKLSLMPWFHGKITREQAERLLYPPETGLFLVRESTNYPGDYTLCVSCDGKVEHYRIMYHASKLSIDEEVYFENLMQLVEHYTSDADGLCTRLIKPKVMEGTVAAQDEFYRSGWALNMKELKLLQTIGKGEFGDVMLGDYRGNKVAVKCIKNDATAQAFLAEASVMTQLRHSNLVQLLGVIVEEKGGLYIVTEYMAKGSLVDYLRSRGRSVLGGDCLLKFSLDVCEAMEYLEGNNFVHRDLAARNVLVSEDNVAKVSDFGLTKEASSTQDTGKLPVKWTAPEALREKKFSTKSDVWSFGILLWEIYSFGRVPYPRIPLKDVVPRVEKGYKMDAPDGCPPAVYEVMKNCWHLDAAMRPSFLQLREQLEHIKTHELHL
property_label: IC50

Input: What does the data say about its IC50? Entry: COc1ccc(Oc2ccc(NS(=O)(=O)c3ccc(C)cc3)c(O)c2)cc1 [Compound 59]
Output: > 259 µM

Input: Lookup Cc1ccc(S(=O)(=O)N(C)c2cc(Sc3ccc(Cl)cc3)c([N+](=O)[O-])cc2N(C)S(=O)(=O)c2ccc(C)cc2)cc1 [Compound 53]
Output: 261 µM

Input: # iterate: COc1ccc(Oc2ccc(NS(=O)(=O)c3ccc(C)cc3)c(C(=O)O)c2)cc1 [Compound 68]
Output: 303 µM

Input: Another: COc1ccc(Oc2ccc(NS(=O)(=O)c3ccc(C)cc3)c(OC)c2)cc1 [Compound 60]
Output: > 250 µM

Input: Quick one: Cc1ccc(S(=O)(=O)Nc2cc([N+](=O)[O-])c(Sc3ccc(Cl)cc3)cc2N)cc1 [Compound 55]
Output: > 222 µM

Kindly give each listed record's IC50.
1. COc1ccc(Oc2ccc(N(C)S(=O)(=O)c3ccc(C)cc3)c(OC)c2)cc1 [Compound 61]
2. COc1ccc(Oc2ccc(NS(=O)(=O)c3ccc(C)cc3)c(OP(=O)(O)O)c2)cc1 [Compound 43]
3. COc1ccc(Oc2ccc(NS(=O)(=O)c3ccc(C)cc3)c(OCC(=O)O)c2)cc1 [Compound 65]
4. Cc1ccc(C(=O)Nc2ccc(Sc3ccc(Cl)cc3)cc2NC(=O)c2ccc(C)cc2)cc1 [Compound 52]
5. COc1ccc(Oc2ccc(NS(=O)(=O)c3ccc(C)cc3)c(OCCCO)c2)cc1 [Compound 63]
6. Cc1ccc(S(=O)(=O)Nc2ccc(Sc3ccc(Cl)cc3)c([N+](=O)[O-])c2)cc1 [Compound 69]

Output:
1: > 242 µM; 2: > 215 µM; 3: > 225 µM; 4: > 205 µM; 5: > 225 µM; 6: 986 µM

// batch mode: one IC50 value per listed entry
1. COc1ccc(OCc2ccc(OS(=O)(=O)c3ccc(C)cc3)c(OS(=O)(=O)c3ccc(C)cc3)c2)cc1 [Compound 48]
2. COc1ccc(Oc2ccc(NS(=O)(=O)c3ccc(C)cc3)c(OCCO)c2)cc1 [Compound 62]
3. Cc1ccc(C(=O)Nc2cc([N+](=O)[O-])c(Sc3ccc(Cl)cc3)cc2N)cc1 [Compound 56]
4. Cc1ccc(C(=O)Nc2cc(Sc3ccc(Cl)cc3)c([N+](=O)[O-])cc2NC(=O)c2ccc(C)cc2)cc1 [Compound 51]
5. COc1ccc(Oc2ccc(NS(=O)(=O)c3ccc(C)cc3)c(OCC(O)CO)c2)cc1 (stereo not shown) [Compound 64]
6. Cc1ccc(S(=O)(=O)Nc2ccc([N+](=O)[O-])c(Sc3ccc(Cl)cc3)c2)cc1 [Compound 70]
7. COc1ccc(OCc2ccc(OC)c(NS(=O)(=O)c3ccc(C)cc3)c2)cc1 [Compound 66]
8. COC(=O)c1cc(Oc2ccc(OC)cc2)ccc1NS(=O)(=O)c1ccc(C)cc1 [Compound 67]

Output:
1: > 180 µM; 2: 15 µM; 3: > 242 µM; 4: 51 µM; 5: > 218 µM; 6: 369 µM; 7: > 242 µM; 8: > 234 µM

---

target: Recombinant Csk (Homo sapiens, UniProt P41240); assay: Csk tyrosine kinase activity, poly E4Y / 32P-ATP phosphorylation assay; format: biochemical; settings: Table 3, Formula II compounds; NI = no inhibition at 100 μg/mL
property_label: IC50

Before answering, review these 3 worked examples.
Input: IC50 lookup needed for CCCCS(=O)(=O)Nc1ccc(Oc2ccc(OC)cc2)cc1NS(=O)(=O)CCCC [Compound 12l] , thanks.
Output: > 212 µM

Input: Cc1ccc(S(=O)(=O)Nc2ccc(Sc3ccc(Cl)cc3)cc2NS(=O)(=O)c2ccc(C)cc2)cc1 [Compound 12ff] ?
Output: 8.6 µM

Input: Please give the result for COc1ccc(Oc2ccc(NS(=O)(=O)c3ccccc3)c(NS(=O)(=O)c3ccccc3)c2)cc1 [Compound 12n] too.
Output: > 196 µM

Consider the following items and state reported IC50 for each.
1. COc1ccc(Oc2ccc(NS(=O)(=O)c3ccc4ccccc4c3)c(NS(=O)(=O)c3ccc4ccccc4c3)c2)cc1 [Compound 12i]
2. COc1ccc(NS(=O)(=O)c2ccc(C)cc2)c(NS(=O)(=O)c2ccc(C)cc2)c1 [Compound 12v]

Output:
1. > 164 µM
2. > 224 µM

List the reported IC50 of each molecule below.
1. COc1ccc(Oc2ccc(NS(=O)(=O)c3ccc(C)cc3)c(NS(=O)(=O)c3ccc(C)cc3)c2)cc1 [Compound 12p]
2. Cc1ccc(S(=O)(=O)Nc2ccc(SCc3ccccc3Cl)cc2NS(=O)(=O)c2ccc(C)cc2)cc1 [Compound 15g]
3. Cc1ccc(S(=O)(=O)Nc2ccc(Oc3ccc(Cl)cc3)cc2NS(=O)(=O)c2ccc(C)cc2)cc1 [Compound 12w]

Output:
1: > 186 µM; 2: > 174 µM; 3: 185 µM

---

molecular target: FGF receptor (FGFr); test: FGFr tyrosine kinase activity, poly E4Y / 32P-ATP phosphorylation assay; format: biochemical; conditions: Table 3, Formula II compounds; NI = no inhibition at 100 μg/mL
property_label: IC50
Answer as a quantity: numeral, then unit.

Examples from the recorded data:
Input: # get_value(readout='IC50', item= COc1ccc(Oc2ccc(NS(=O)(=O)c3ccc4ccccc4c3)c(NS(=O)(=O)c3ccc4ccccc4c3)c2)cc1 [Compound 12i] )
Output: 48 µM

Input: Same lookup for COc1ccc(Oc2ccc(NS(=O)(=O)c3cccc4ccccc34)c(NS(=O)(=O)c3cccc4ccccc34)c2)cc1 [Compound 12h] , please.
Output: 36 µM

Input: Consider next the compound CCc1ccc(S(=O)(=O)Nc2ccc(Oc3ccc(OC)cc3)cc2NS(=O)(=O)c2ccc(CC)cc2)cc1 [Compound 12a] in the same way.
Output: 44 µM

Input: Please answer likewise for COc1ccc(Oc2ccc(NS(=O)(=O)c3ccc(F)cc3)c(NS(=O)(=O)c3ccc(F)cc3)c2)cc1 [Compound 12d]
Output: 35 µM

Would you kindly look at the next entry?
Input: Using the record for Cc1ccc(S(=O)(=O)Nc2ccc(Oc3ccc(F)cc3)cc2NS(=O)(=O)c2ccc(C)cc2)cc1 [Compound 12t] , report its IC50.
Output: 40 µM
